Source: the DeepSol protein solubility set

Test: soluble on expression in E. coli; label from the status in PepcDB or PDB records
property_measured: soluble on expression in E. coli

MDTLPECPITNTASLLPHSGRMVLIDRITRYGDDFVEAGAQVSPNHILLLDDKLPYTAFIELMAQAVGAYAGIQARKNARSVRLGFLLGTRKLEIFAQSVPIGTHLLATAHMSIQDAGGMGVFDCELRWTDAPETSSETLPSDGILARASLNVYSPEHPAGTTDAVLEHHHHHH not soluble
MTLVVPFDGSELAEAALVRAAEFGTVFEEDVLAVSVIRNGNAKYAREHDWIGPNEDFDLEAVVTSLHEQVIDLCPSSDFRHTVVDRYAPAGAVAKAIRKLAKREDASMVFIGSENAGHLVTSISSVGGSIASDDAYDVVIVRHR not soluble

###

Assay: soluble on expression in E. coli; label from the status in PepcDB or PDB records
property_measured: soluble on expression in E. coli

MVMFMVFRILGRMTKIEKEIKEEEAKYDLIIKNEAKIEPIVAEEDMEFKQGDIKPIRIKKIKIPPMSVLLICPYGRHRVGHVVAVGEEVPMPIDVEREVDMAMFACGFEGEVKKGDLIGMLLILAAEKRELEHHHHHH not soluble
MGSDKIHHHHHHMENYQLRIAHLYGDLMNTYGDYGNVIAIKYYAKQIQVETDYHLISLGDSFKADDYDFVIFGGGQDYEESVTAKDLPSKSDEIKKYIENNDSLLAVCGGFQLLGTTMEFANGKIINGIGAMSHHTVNLNSSELFDNMRGKRLIGNIQIKNNESGETYHGFENHQGRTFLGKGEKALGTVVSGNGNNGDDKTEGVIYKQVYGTYFHGPILTRNGNLAKRILKNALLKRYPDIDWQAKLDGIPTESF not soluble

###

Assay: soluble on expression in E. coli; label from the status in PepcDB or PDB records
property_measured: soluble on expression in E. coli

RMSEQSICQARAAVMVYDDANKKWVPAGGSTGFSRVHIYHHTGNNTFRVVGRKIQDHQVVINCAIPKGLKYNQATQTFHQWRDARQVYGLNFGSKEDANVFASAMMHALEVLNS soluble
VQTGIDTLLPDYKKQLKGKRIGLITNPAGVNTSLKSSVDILYENPDIKLTALFGPEHGVRGDAQAGDEVGSYIDEKTGVPVYSLYGKTKKPTPEMLKNVDILMFDIQDVGTRFYTYIYTMAYAMEAAKENGIPFMVLDRPNPQGGNHIEGPILEPEYASFVGLYPIPLKHGMTIGELASLFNKEFSIDADLTVVKMKHWKRKMDFDDTRLPFVLPSPNMPTVESTFVYPATGLIEGTNISEGRGTTKPFELIGAPFIKSTELEETLNSLHLPGVTFRAASFTPTFSKHQGTLCHGVQLYVTDRDKFEAVKTGLSVIKTIHDLYPEDFEFLSTGSFDKLAGNGWIRTKIENGTSVENIINSYEKTLQQFSKTRKKYLIY soluble

###

Assay: soluble on expression in E. coli; label from the status in PepcDB or PDB records
property_measured: soluble on expression in E. coli

MGSDKIHHHHHHVAELVFFSGTMDCGKSTLALQMDHNHRARGRGGVRFSRNDRAGGARISSRLGLETDCVEVLDTTDFWDEVIERRTRGLRVDYLICDEAQFYSPLQVEQLARIVDEIDVDVFAFGISADFRTRLFPGSQRLIELADRVQVLQVEALCWCGRRATHNARTVDGVMVTEGAQVVVGDVDMAGDPASASADHAPVVGYETLCRRHFMRRVTAHGANVMAQQDQLLPFEVDACLWHGSGETRHS not soluble
MAKLVTENISKRFKNQDVLKHINITLENNEVYGLLGINGAGKTTLMKIICGILQQDSGEIKLDNRPMTRNDLHKVGSLIETPATYNHLSAQDNLKIVCLNESVDFSEINSVLSLVNLNVDKKKKVKDFSLGMKQRLGIAMALIKKPEILVLDEPSNGLDPYGIQELRELLKLLTEQGTSIIISSHILSEIQVLADHIGIIHEGELKYQQRNNKDENLEEIFFKITKGDYK not soluble
